Target: KRAS G13C (Homo sapiens, UniProt P01116+P62937, G13C)
Sequence (P01116 1-169 isoform P01116-2 G13C limits assumed): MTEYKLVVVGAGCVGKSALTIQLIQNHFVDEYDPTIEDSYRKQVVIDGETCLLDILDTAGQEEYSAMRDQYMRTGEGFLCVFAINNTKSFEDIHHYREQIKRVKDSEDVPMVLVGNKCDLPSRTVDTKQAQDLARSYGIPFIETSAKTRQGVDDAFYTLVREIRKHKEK
Sequence (P62937 whole entry): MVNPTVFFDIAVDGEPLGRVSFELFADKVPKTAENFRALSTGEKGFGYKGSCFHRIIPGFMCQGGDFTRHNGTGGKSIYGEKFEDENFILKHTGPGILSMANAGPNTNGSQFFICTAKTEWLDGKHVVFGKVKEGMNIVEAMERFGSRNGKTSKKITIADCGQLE
Assay: Ras-Raf disruption/FRET/MOA assay, KRAS G13C
Assay type: biochemical
Description: Disruption of B-Raf Ras-Binding Domain (BRAF^RBD) Interaction with K-Ras by Compounds of the Invention (Also Called a FRET Assay or an MOA Assay) Note—The following protocol describes a procedure for monitoring disruption of K-Ras G12C (GMP-PNP) binding to BRAF^RBD by a compound of the invention. This protocol may also be executed substituting other Ras proteins or nucleotides, such as K-Ras G12D and K-Ras G13D. […]
pIC50: −log10 of the molar value.
measured_attribute: pIC50

Examples from the recorded data:
compound: CCn1c(-c2cnccc2COC)c2c3cc(ccc31)-c1cc(O)cc(c1)C[C@H](NC(=O)[C@H](C(C)C)N(C)C(=O)CN(C)C(=O)[C@@H]1CN1Cc1ccccc1)C(=O)N1CCC[C@H](N1)C(=O)OCC(C)(C)C2 (stereo partly shown)
pIC50: 6.00 to 7.00
--
compound: CCn1c(-c2cnccc2COC)c2c3cc(ccc31)-c1cc(O)cc(c1)C[C@H](NC(=O)[C@H](C(C)C)N(C)C(=O)CN(C)C(=O)C1CN1)C(=O)N1CCC[C@H](N1)C(=O)OCC(C)(C)C2 (stereo partly shown)
pIC50: 6.00 to 7.00
--
compound: CCn1c(-c2cccnc2[C@H](C)OC)c2c3cc(ccc31)-c1cc(O)cc(c1)C[C@H](NC(=O)[C@H](C(C)C)N(C)C(=O)CN(C)C(=O)[C@H]1N[C@H]1C1CC1)C(=O)N1CCC[C@H](N1)C(=O)OCC(C)(C)C2
pIC50: 7.00 to 8.00

Now look at this entry.
INPUT: Request the reported pIC50 associated with CCn1c(-c2cnccc2COC)c2c3cc(ccc31)-c1cc(O)cc(c1)C[C@H](NC(=O)[C@H](C(C)C)N(C)C(=O)CN(C)C(=O)[C@H]1N[C@H]1c1ccccc1)C(=O)N1CCC[C@H](N1)C(=O)OCC(C)(C)C2
OUTPUT: 6.00 to 7.00
